target-of-assay: T1, active site-blocked human plasmin (human, UniProt P00747 97-810, limits assumed, active site blocked with a chloromethylketone inhibitor (e.g., D-Val-Phe-Lys chloromethylketone dihydrochloride))
T1 construct: also called immobilized plasmin
T1 sequence (P00747 97-810 limits assumed): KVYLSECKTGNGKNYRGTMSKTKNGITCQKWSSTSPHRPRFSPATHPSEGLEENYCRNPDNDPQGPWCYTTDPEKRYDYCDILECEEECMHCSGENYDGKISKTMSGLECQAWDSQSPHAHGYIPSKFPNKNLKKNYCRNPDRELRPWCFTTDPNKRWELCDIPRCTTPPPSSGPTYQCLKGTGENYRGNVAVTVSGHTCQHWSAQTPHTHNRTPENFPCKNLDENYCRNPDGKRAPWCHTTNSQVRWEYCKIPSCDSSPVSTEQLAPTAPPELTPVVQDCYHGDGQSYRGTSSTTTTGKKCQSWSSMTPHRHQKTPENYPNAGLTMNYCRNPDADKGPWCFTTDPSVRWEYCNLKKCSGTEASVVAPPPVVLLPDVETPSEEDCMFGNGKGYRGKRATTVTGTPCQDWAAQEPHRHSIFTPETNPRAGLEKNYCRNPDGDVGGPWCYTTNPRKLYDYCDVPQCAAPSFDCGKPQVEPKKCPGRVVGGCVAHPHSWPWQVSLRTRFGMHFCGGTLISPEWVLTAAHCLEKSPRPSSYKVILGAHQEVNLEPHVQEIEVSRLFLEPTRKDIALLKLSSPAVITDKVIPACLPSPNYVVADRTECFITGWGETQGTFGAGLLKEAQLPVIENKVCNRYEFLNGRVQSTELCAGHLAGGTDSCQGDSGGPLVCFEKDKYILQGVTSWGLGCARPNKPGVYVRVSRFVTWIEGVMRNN
assay-protocol: SPR (BiaCore), active site-blocked plasmin on CM5 chip, polypeptide as analyte at 1-10 µM
pKd: −log10 of the molar value.
reported-metric: pKd

binder="plasmin-inhibiting polypeptide comprising the amino acid sequence set forth in SEQ ID NO:3 (designed binder, Expressed in E. coli; also called DM; 60B) NAEICLLPLDTGPCRARLLRYYYDRYTQSCRQFLYGGCEGNANNFYTWEACDDACWRIEK" test_value=6.50
binder="plasmin-inhibiting polypeptide comprising the amino acid sequence set forth in SEQ ID NO:5 (designed binder, Expressed in E. coli; also called 60A) NAEICLLPLDYGPCRARLLRYYYDRYTQSCRQFLYGGCEGNANNFYTWEACDDACWRIEK" test_value=6.89
